Reported values of % of full length SNAP-25, mES-MNs pre intoxication for individual entries
# target under test: BoNT/A holotoxin (Clostridium botulinum)
# Sequence (P0DPI1 2-448 limits assumed): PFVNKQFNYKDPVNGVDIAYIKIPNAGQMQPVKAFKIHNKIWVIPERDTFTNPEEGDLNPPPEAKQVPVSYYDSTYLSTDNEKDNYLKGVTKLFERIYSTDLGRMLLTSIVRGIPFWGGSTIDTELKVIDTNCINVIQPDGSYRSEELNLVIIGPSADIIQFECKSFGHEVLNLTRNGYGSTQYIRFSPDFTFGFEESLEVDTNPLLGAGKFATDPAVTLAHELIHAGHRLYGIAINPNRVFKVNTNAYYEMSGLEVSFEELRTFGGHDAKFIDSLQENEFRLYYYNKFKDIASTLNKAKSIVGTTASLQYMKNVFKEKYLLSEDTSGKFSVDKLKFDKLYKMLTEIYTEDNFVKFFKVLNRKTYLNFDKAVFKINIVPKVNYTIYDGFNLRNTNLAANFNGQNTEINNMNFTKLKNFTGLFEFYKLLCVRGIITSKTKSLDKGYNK
# assay details: cell-based
# condition details: 10 μM

[
  {
    "compound": "CC(=O)O[C@H]1C[C@H]2[C@@H]([C@H](OC(C)=O)C[C@@H]3C[C@H](N)CC[C@@]32C)[C@@H]2CC[C@H]([C@H](C)CCCNCCCC(C)Nc3ccnc4ccccc34)[C@@]12C (some centres unmarked) [Compound 17]",
    "target under test": "BoNT/A holotoxin (Clostridium botulinum)",
    "observed": "67; 69%"
  },
  {
    "compound": "CC(CCNCCC12CC3CC(CC(C3)C1)C2)Nc1c(F)cnc2cc(Cl)ccc12 (centres unmarked) [Compound 103]",
    "target under test": "BoNT/A holotoxin (Clostridium botulinum)",
    "observed": "30; 29%"
  },
  {
    "compound": "CN(CCCCNc1ccnc2ccccc12)Cc1ccc(-c2csc3ccc(F)cc23)cc1 [Compound 37]",
    "target under test": "BoNT/A holotoxin (Clostridium botulinum)",
    "observed": "44; 55%"
  },
  {
    "compound": "N#Cc1ccc(-c2ccc(-c3ccc(CNCCCCNc4ccnc5ccccc45)cc3)s2)cc1 [Compound 101]",
    "target under test": "BoNT/A holotoxin (Clostridium botulinum)",
    "observed": "18; 39%"
  },
  {
    "compound": "CC(CCCNCc1ccc(-c2csc3ccc(C#N)cc23)cc1)Nc1ccnc2ccccc12 (centres unmarked) [Compound 36]",
    "target under test": "BoNT/A holotoxin (Clostridium botulinum)",
    "observed": "34; 53%"
  }
]

Find the measured % of full length SNAP-25, mES-MNs pre intoxication: item CC(=O)O[C@H]1C[C@H]2[C@@H]([C@H](OC(C)=O)C[C@@H]3C[C@H](N)CC[C@@]32C)[C@@H]2CC[C@H]([C@H](C)CCCNC(C)CCCNc3ccnc4ccccc34)[C@@]12C (some centres unmarked) [Compound 19] , target or system BoNT/A holotoxin (Clostridium botulinum).
86; 87%

// same read-out, input: CN(CCCNc1ccnc2cc(Cl)ccc12)CC12CC3CC(CC(C3)C1)C2 [Compound 57]
51; 56%

// same read-out, input: CC(CCNc1ccnc2ccccc12)NCCC12CC3CC(CC(C3)C1)C2 (centres unmarked) [Compound 81]
23; 24%

// same read-out, input: N#Cc1ccc(-c2ccc(-c3ccc(CNCCCCCCNc4ccnc5ccccc45)cc3)s2)cc1 [Compound 46]
22; 48%
